Assay: compound effects on differentiated 3T3-L1 adipocyte viability – cell-based, 3T3-L1 adipocytes, calcein-AM fluorescence, 48 h, basal, profiling panel (AID 1163); note: test concentration not given here
Settings: 3T3-L1 adipocytes viability, higher = more signal
Measured Quantity: z-score

                                   molecule  reading
0  Cc1cc(C)c(C(O)C2C=CC3C(=O)N(c4ccccc4)C(=O)C3N2Nc2ccccc2)c(C)c1 (configuration not stated)    -1.35
1  C=CCNC(=O)[C@@H]1[C@H]2C(=O)O[C@H](c3ccccc3)[C@H](c3ccccc3)N2[C@H](c2ccc(O)cc2)[C@@]12C(=O)Nc1ccc(C#CCCO)cc12     0.79
2  COCCCNC(=O)[C@@]1(C)c2ccccc2C(=O)N(c2ccc(C)cn2)[C@H]1c1ccc(CO)cc1    -1.13
3  [N-]=[N+]=Nc1ccccc1[C@@H]1OC(c2ccc(OCCCO)cc2)=N[C@]1(CCS(=O)(=O)c1ccccc1)C(=O)NCc1ccccc1    0.803
4  COC(=O)[C@@]1(Cc2ccc(F)cc2)[C@H]2c3cc(C(=O)N(C)C)n(CCSCCO)c3C[C@H]2CN1C(=O)c1ccccc1   -0.352
5  CN1C(=O)C2C=CC(C(O)c3cccc4ccccc34)N(NC(=O)OC(C)(C)C)C2C1=O (configuration not stated)  -0.0679
6  CC(C)C[C@@H]1NC(=O)[C@@H]2C[C@H](C(=O)NCCCC[N+](C)(C)C)[C@H](c3cccc(OCCO)c3)N2C1=O  -0.0337

meta.source: PubChem BioAssay
